Molecular target: SMARCA4 (Homo sapiens, UniProt P51532)
Sequence (P51532 whole entry): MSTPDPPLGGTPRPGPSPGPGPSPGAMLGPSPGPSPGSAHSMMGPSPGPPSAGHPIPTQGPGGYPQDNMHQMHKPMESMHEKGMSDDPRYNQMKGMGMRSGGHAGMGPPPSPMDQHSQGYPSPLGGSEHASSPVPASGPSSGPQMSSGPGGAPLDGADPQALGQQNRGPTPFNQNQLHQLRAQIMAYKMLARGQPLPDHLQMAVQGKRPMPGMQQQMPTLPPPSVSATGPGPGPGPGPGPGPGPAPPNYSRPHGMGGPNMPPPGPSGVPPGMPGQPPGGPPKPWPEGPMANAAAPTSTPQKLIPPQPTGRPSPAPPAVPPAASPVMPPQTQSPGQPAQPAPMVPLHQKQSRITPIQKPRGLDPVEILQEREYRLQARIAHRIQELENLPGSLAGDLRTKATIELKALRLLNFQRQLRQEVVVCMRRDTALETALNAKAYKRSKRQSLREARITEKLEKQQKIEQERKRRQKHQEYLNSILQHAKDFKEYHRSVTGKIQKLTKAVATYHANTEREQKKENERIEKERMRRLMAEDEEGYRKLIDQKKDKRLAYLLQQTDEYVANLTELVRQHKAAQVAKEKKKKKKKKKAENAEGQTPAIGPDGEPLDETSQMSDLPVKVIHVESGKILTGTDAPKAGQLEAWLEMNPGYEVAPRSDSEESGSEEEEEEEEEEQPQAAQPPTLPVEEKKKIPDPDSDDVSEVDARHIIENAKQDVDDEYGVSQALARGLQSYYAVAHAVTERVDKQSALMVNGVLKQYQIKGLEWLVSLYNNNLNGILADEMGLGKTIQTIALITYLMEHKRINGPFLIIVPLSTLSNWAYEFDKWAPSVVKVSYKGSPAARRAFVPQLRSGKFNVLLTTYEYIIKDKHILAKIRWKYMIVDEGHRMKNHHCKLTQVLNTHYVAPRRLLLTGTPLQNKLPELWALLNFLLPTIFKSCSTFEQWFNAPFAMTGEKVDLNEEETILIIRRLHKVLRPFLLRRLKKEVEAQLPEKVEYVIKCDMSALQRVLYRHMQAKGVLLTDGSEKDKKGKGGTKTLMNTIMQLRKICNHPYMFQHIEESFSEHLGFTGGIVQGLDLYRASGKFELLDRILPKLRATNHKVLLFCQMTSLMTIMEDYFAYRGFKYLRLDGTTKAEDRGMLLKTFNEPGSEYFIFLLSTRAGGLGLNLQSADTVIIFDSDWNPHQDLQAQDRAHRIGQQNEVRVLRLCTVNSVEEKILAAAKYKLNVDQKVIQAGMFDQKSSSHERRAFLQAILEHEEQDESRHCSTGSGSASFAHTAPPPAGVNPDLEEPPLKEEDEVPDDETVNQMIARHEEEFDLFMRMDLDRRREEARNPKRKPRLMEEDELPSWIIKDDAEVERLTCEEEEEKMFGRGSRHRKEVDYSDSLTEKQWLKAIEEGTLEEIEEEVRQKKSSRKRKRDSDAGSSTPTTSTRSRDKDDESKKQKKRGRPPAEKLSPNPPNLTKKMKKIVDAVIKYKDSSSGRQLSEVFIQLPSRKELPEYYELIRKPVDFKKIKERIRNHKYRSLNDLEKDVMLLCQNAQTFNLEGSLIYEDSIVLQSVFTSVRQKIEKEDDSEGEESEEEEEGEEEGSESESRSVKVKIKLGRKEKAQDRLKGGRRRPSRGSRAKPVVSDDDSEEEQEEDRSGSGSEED
Assay: HiBit assay in engineered HT1080 CRISPR knock-in cell, 6 hrs (B series), SMARCA4
Assay type: cell-based
Conditions: HT-1080, HT1080 CRISPR knock-in cells, 6 hrs incubation; read-out: SMARC A4 HT1080 HiBit Dmax(%)
Procedure: The HiBit assay was performed using engineered HT1080 CRISPR knock-in cell utilizing the Nano-Glo HiBiT Lytic Detection System from Promega, Cat #N3040. Compounds were transferred, 25 nL DMSO or test compounds (final DMSO @ 0.1%) to intermediate plates (Corning3570) using ECHO550. […] After briefly centrifugation (2000 rpm 1 mins), plate was read on Envision (Ultrasensitive luminescence model).
I'd be grateful if you could share measured Dmax for these entries.

{"COMPOUND": "Cc1ncsc1-c1ccc(C2(NC(=O)[C@@H]3C[C@@H](O)CN3C(=O)[C@@H](n3cc([C@H]4CC[C@H](CN5CCC(c6ccc7c(c6)-n6c(nc(=O)c8c(Cl)cccc86)C7(C)C)CC5)CC4)nn3)C(C)(C)C)CN(C)C2)cc1 [Compound B124]", "Dmax": "< 50%"}

Ask: Please give the measured Dmax for this compound: Cc1ncsc1-c1ccc([C@H](C)NC(=O)[C@@H]2C[C@@H](O)CN2C(=O)[C@@H](c2cc(OCC#Cc3cccc4c3C(C)(C)c3nc(=O)c5c(Cl)cccc5n3-4)no2)C(C)C)cc1 [Compound B130]
Reply: 50 to 69%

====

target: SMARCA4 (Homo sapiens, UniProt P51532); test: HiBiT assay for protein degradation, Hela SMARCA4-HiBiT cells (A series); assay type: cell-based; set-up: fuse HiBiT to the carboxy terminus of SMARCA2 (Promega CS302365) or SMARCA4 (Promega CS3023225); host or cells: HeLa (CRISPR/Cas9 HiBiT knock-in); conditions: Hela SMARCA4-HiBiT cells, 24 hours treatment; read-out: SMARC A4 Hela HiBit DC50
READOUT KIND: DC50

{"COMPOUND": "Cc1ncsc1-c1ccc([C@H](CN2CCOCC2)NC(=O)[C@@H]2C[C@@H](O)CN2C(=O)[C@H](C2CCCCC2)n2cc([C@H]3CC[C@H](CN4CCC(c5ccc6c(c5)-n5c(nc(=O)c7c(Cl)cccc75)C65CCCCC5)C4)CC3)nn2)cc1 (some centres unmarked)", "TGT": "SMARCA4 (Homo sapiens, UniProt P51532)", "DC50": "> 1000 nM"}

Could you now look at the following compound, please?
Ask: I would be grateful if you could share the reported DC50 for Cc1ncsc1-c1ccc([C@H](C)NC(=O)[C@@H]2C[C@@H](O)CN2C(=O)[C@H](C2CCCCC2)n2cc([C@H]3CC[C@H](CN4CCC(c5ccc6c(c5)-n5c(nc(=O)c7c(Br)cccc75)C65CCCCC5)CC4)CC3)nn2)cc1 .
Reply: 10 to 100 nM

====

Answer each item with its documented Dmax.
target: UniProtKB P51531; experiment: HiBit assay in engineered HT1080 CRISPR knock-in cell, 6 hrs (B series), SMARCA2; assay type: cell-based; details: HT-1080, HT1080 CRISPR knock-in cells, 6 hrs incubation; read-out: SMARC A2 HT1080 HiBit Dmax (%)
Sequence (P51531 whole entry): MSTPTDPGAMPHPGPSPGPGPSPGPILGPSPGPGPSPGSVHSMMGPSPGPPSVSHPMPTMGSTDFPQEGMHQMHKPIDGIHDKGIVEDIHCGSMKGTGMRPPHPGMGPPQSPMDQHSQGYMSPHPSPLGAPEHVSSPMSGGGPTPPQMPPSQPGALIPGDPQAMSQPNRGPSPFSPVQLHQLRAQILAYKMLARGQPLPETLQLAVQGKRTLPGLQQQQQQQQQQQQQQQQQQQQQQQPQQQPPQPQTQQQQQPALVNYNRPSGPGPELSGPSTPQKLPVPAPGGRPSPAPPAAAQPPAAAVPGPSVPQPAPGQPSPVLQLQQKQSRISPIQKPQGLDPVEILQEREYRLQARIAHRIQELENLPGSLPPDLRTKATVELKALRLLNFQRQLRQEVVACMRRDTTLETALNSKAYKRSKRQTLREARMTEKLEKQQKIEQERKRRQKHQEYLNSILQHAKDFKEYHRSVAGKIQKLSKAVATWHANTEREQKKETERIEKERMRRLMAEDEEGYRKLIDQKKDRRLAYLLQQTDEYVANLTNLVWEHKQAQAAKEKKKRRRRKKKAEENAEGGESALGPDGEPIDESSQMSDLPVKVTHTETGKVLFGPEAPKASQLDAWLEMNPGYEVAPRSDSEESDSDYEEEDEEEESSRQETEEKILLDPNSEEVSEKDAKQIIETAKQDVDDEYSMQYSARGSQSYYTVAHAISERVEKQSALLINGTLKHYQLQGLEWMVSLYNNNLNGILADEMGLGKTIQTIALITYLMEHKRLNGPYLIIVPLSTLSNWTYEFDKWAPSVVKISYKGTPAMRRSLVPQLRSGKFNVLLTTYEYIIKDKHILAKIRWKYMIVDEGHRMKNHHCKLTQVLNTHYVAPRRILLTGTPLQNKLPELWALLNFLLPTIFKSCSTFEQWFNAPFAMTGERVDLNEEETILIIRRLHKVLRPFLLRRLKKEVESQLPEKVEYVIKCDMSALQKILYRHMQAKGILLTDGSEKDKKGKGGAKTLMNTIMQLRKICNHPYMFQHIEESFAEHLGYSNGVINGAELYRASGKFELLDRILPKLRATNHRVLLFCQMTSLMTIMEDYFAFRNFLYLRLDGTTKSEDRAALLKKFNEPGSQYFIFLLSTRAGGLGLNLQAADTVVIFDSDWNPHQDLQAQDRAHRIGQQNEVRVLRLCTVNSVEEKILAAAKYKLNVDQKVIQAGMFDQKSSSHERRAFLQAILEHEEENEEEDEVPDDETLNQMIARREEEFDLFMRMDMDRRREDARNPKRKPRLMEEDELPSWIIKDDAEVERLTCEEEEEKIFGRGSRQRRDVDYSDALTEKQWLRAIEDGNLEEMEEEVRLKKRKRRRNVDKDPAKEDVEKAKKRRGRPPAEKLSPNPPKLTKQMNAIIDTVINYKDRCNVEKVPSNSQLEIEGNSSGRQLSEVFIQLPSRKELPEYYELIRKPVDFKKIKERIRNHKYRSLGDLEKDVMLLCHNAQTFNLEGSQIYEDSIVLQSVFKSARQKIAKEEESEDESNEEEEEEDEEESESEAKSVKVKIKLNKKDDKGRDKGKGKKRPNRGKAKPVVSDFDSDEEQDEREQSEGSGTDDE

{"COMPOUND": "Cc1cc(C(C(=O)N2C[C@H](O)C[C@H]2C(=O)N[C@@H](CCCCCN2CCC(c3ccc4c(c3)-n3c(nc(=O)c5c(Cl)cccc53)C4(C)C)CC2)c2ccc(-c3scnc3C)cc2)C(C)C)on1 (some centres unmarked)", "TGT": "UniProtKB P51531", "Dmax": "> 90%"}

Ask: Consider the compound shown here: Cc1ncsc1-c1ccc([C@H](C)NC(=O)[C@@H]2C[C@@H](O)CN2C(=O)[C@@H](c2cc(N3CCC(CN4CCC(c5ccc6c(c5)C(C)(C)c5nc(=O)c7c(Cl)cccc7n5-6)CC4)CC3)no2)C(C)C)cc1 What is its recorded Dmax?
Reply: > 90%
